meta.source: paper PMC9306950

- Procedure Summary: clinical
- Measurement Context: human, in vivo, t1/2, median (min-max)
Assay Readout: half-life (h)
Numeric only. Scale: h

Field request: half-life | item: CCC(C)(C)C(=O)O[C@H]1C[C@@H](C)C=C2C=C[C@H](C)[C@H](CC[C@@H](O)C[C@@H](O)CC(=O)O)[C@H]21 5.27

====

- Measurement Context: human, in vivo, Cmax, mean (SD), simvastatin administered 4 hours after roxadustat, plasma
Assay Readout: Cmax (ng/mL)
Numeric only. Scale: ng/mL

Field request: Cmax | item: CCC(C)(C)C(=O)O[C@H]1C[C@@H](C)C=C2C=C[C@H](C)[C@H](CC[C@@H](O)C[C@@H](O)CC(=O)O)[C@H]21 12.8

====

- Procedure Summary: clinical
- Measurement Context: human, in vivo, po, Cmax, mean (SD), statin alone, single oral dose, plasma
Assay Readout: Cmax (ng/mL)
Numeric only. Scale: ng/mL

Field request: Cmax | item: CCC(C)(C)C(=O)O[C@H]1C[C@@H](C)C=C2C=C[C@H](C)[C@H](CC[C@@H](O)C[C@@H](O)CC(=O)O)[C@H]21 [Simvastatin acid] 2.17

====

- Procedure Summary: clinical
- Measurement Context: human, in vivo, po, t1/2, mean (SD)
Assay Readout: half-life (h)
Numeric only. Scale: h

Field request: half-life | item: CCC(C)(C)C(=O)O[C@H]1C[C@@H](C)C=C2C=C[C@H](C)[C@H](CC[C@@H](O)C[C@@H](O)CC(=O)O)[C@H]21 6.28

====

- Measurement Context: human, in vivo, AUCinf, mean (SD), simvastatin administered 10 hours after roxadustat, plasma
Assay Readout: AUC(0-inf) (ng·h/mL)
Numeric only. Scale: ng·h/mL

Field request: AUC(0-inf) | item: CCC(C)(C)C(=O)O[C@H]1C[C@@H](C)C=C2C=C[C@H](C)[C@H](CC[C@@H](O)C[C@@H](O)CC(=O)O)[C@H]21 59.4

====

- Measurement Context: human, in vivo, AUClast, mean (SD), simvastatin administered 2 hours before roxadustat, plasma
Assay Readout: AUC(0-t) (ng·h/mL)
Numeric only. Scale: ng·h/mL

Field request: AUC(0-t) | item: CCC(C)(C)C(=O)O[C@H]1C[C@@H](C)C=C2C=C[C@H](C)[C@H](CC[C@@H](O)C[C@@H](O)CC(=O)O)[C@H]21 [Simvastatin acid] 44.7

====

- Measurement Context: human, in vivo, Cmax, median (min-max), simvastatin administered 2 hours before roxadustat, plasma
Assay Readout: Cmax (ng/mL)
Numeric only. Scale: ng/mL

Field request: Cmax | item: CCC(C)(C)C(=O)O[C@H]1C[C@@H](C)C=C2C=C[C@H](C)[C@H](CC[C@@H](O)C[C@@H](O)CC(=O)O)[C@H]21 4.5

====

- Procedure Summary: clinical
- Measurement Context: human, in vivo, po, t1/2, median (min-max), statin alone, single oral dose, plasma
Assay Readout: half-life
Put your answer as a value accompanied by its unit after it.

Field request: half-life | item: CC(C)c1nc(N(C)S(C)(=O)=O)nc(-c2ccc(F)cc2)c1/C=C/[C@@H](O)C[C@@H](O)CC(=O)O 15.2 h

====

- Measurement Context: human, in vivo, 40 mg, tmax, mean (SD), simvastatin 40 mg alone, plasma
Assay Readout: Tmax (h)
Numeric only. Scale: h

Field request: Tmax | item: CCC(C)(C)C(=O)O[C@H]1C[C@@H](C)C=C2C=C[C@H](C)[C@H](CC[C@@H](O)C[C@@H](O)CC(=O)O)[C@H]21 [Simvastatin acid] 5.38

====

- Procedure Summary: clinical
- Measurement Context: human, in vivo, t1/2, mean (SD)
Assay Readout: half-life

Field request: half-life | item: CCC(C)(C)C(=O)O[C@H]1C[C@@H](C)C=C2C=C[C@H](C)[C@H](CC[C@@H](O)C[C@@H](O)CC(=O)O)[C@H]21 5.98 h

====

- Measurement Context: human, in vivo, AUClast, mean (SD), simvastatin administered 10 hours after roxadustat, plasma
Assay Readout: AUC(0-t) (ng·h/mL)
Numeric only. Scale: ng·h/mL

Field request: AUC(0-t) | item: CCC(C)(C)C(=O)O[C@H]1C[C@@H](C)C=C2C=C[C@H](C)[C@H](CC[C@@H](O)C[C@@H](O)CC(=O)O)[C@H]21 57.4

====

- Measurement Context: human, in vivo, AUCinf, GLS mean for simvastatin alone, simvastatin alone
Assay Readout: AUC(0-inf) (ng·h/mL)
Numeric only. Scale: ng·h/mL

Field request: AUC(0-inf) | item: CCC(C)(C)C(=O)O[C@H]1C[C@@H](C)C=C2C=C[C@H](C)[C@H](CC[C@@H](O)C[C@@H](O)CC(=O)O)[C@H]21 [Simvastatin acid] 21

====

- Measurement Context: human, in vivo, tmax, mean (SD), simvastatin administered 2 hours before roxadustat, plasma
Assay Readout: Tmax

Field request: Tmax | item: CCC(C)(C)C(=O)O[C@H]1C[C@@H](C)C=C2C=C[C@H](C)[C@H](CC[C@@H](O)C[C@@H](O)CC(=O)O)[C@H]21 5.55 h

====

- Measurement Context: human, in vivo, 40 mg, AUCinf, mean (SD), simvastatin 40 mg alone, plasma
Assay Readout: AUC(0-inf)
Put your answer as a value accompanied by its unit after it.

Field request: AUC(0-inf) | item: CCC(C)(C)C(=O)O[C@H]1C[C@@H](C)C=C2C=C[C@H](C)[C@H](CC[C@@H](O)C[C@@H](O)CC(=O)O)[C@H]21 24.3 ng·h/mL

====

- Measurement Context: human, in vivo, AUCinf, median (min-max), simvastatin administered 10 hours after roxadustat, plasma
Assay Readout: AUC(0-inf) (ng·h/mL)
Numeric only. Scale: ng·h/mL

Field request: AUC(0-inf) | item: CCC(C)(C)C(=O)O[C@H]1C[C@@H](C)C=C2C=C[C@H](C)[C@H](CC[C@@H](O)C[C@@H](O)CC(=O)O)[C@H]21 50.5

====

- Measurement Context: human, in vivo, AUClast, median (min-max), simvastatin administered 4 hours after roxadustat, plasma
Assay Readout: AUC(0-t) (ng·h/mL)
Numeric only. Scale: ng·h/mL

Field request: AUC(0-t) | item: CCC(C)(C)C(=O)O[C@H]1C[C@@H](C)C=C2C=C[C@H](C)[C@H](CC[C@@H](O)C[C@@H](O)CC(=O)O)[C@H]21 68.9

====

- Measurement Context: human, in vivo, Cmax, median (min-max), simvastatin administered 10 hours after roxadustat, plasma
Assay Readout: Cmax (ng/mL)
Numeric only. Scale: ng/mL

Field request: Cmax | item: CCC(C)(C)C(=O)O[C@H]1C[C@@H](C)C=C2C=C[C@H](C)[C@H](CC[C@@H](O)C[C@@H](O)CC(=O)O)[C@H]21 6.1

====

- Procedure Summary: clinical
- Measurement Context: human, in vivo, po, tmax, median (min-max), statin alone, single oral dose, plasma
Assay Readout: Tmax
Put your answer as a value accompanied by its unit after it.

Field request: Tmax | item: CCC(C)(C)C(=O)O[C@H]1C[C@@H](C)C=C2C=C[C@H](C)[C@H](CC[C@@H](O)C[C@@H](O)CC(=O)O)[C@H]21 4.02 h

====

- Measurement Context: human, in vivo, 40 mg, t1/2, mean (SD), simvastatin 40 mg alone, plasma
Assay Readout: half-life (h)
Numeric only. Scale: h

Field request: half-life | item: CCC(C)(C)C(=O)O[C@H]1C[C@@H](C)C=C2C=C[C@H](C)[C@H](CC[C@@H](O)C[C@@H](O)CC(=O)O)[C@H]21 7

====

- Procedure Summary: clinical
- Measurement Context: human, in vivo, AUCinf, GLS mean for roxadustat + statin
Assay Readout: AUC(0-inf)
Put your answer as a value accompanied by its unit after it.

Field request: AUC(0-inf) | item: CC(C)c1nc(N(C)S(C)(=O)=O)nc(-c2ccc(F)cc2)c1/C=C/[C@@H](O)C[C@@H](O)CC(=O)O 184 ng·h/mL

====

- Measurement Context: human, in vivo, AUClast, median (min-max), simvastatin administered 2 hours before roxadustat, plasma
Assay Readout: AUC(0-t) (ng·h/mL)
Numeric only. Scale: ng·h/mL

Field request: AUC(0-t) | item: CCC(C)(C)C(=O)O[C@H]1C[C@@H](C)C=C2C=C[C@H](C)[C@H](CC[C@@H](O)C[C@@H](O)CC(=O)O)[C@H]21 38.2

====

- Measurement Context: human, in vivo, tmax, mean (SD), simvastatin administered 4 hours after roxadustat, plasma
Assay Readout: Tmax (h)
Numeric only. Scale: h

Field request: Tmax | item: CCC(C)(C)C(=O)O[C@H]1C[C@@H](C)C=C2C=C[C@H](C)[C@H](CC[C@@H](O)C[C@@H](O)CC(=O)O)[C@H]21 [Simvastatin acid] 4.01

====

- Measurement Context: human, in vivo, t1/2, median (min-max), simvastatin administered 2 hours before roxadustat, plasma
Assay Readout: half-life (h)
Numeric only. Scale: h

Field request: half-life | item: CCC(C)(C)C(=O)O[C@H]1C[C@@H](C)C=C2C=C[C@H](C)[C@H](CC[C@@H](O)C[C@@H](O)CC(=O)O)[C@H]21 4.27
